run-description: Saturated solubility of the main drug in different media
Type: physicochemical
settings: aqueous buffer, thermodynamic from solid; pH 6.8 PBS buffer, 37° C., 72 hours
test-readout: solubility at 72 h (mg/mL)
Please respond with the number in mg/mL and leave the unit unwritten.

Give solubility at 72 h for O=[N+]([O-])c1ccc(O)c2ncccc12 [main drug, monohydrate] 15.7

* * *

run-description: Saturated solubility of the main drug in different media
Type: physicochemical
settings: simulated gastric fluid, thermodynamic from solid; pH 1.0 hydrochloric acid solution, 37° C., 72 hours
test-readout: solubility at 72 h (µg/mL)
Please respond with the number in µg/mL and leave the unit unwritten.

Give solubility at 72 h for O=[N+]([O-])c1ccc(O)c2ncccc12 [main drug, monohydrate] 1540

* * *

run-description: Saturated solubility of the main drug in different media
Format: physicochemical
settings: thermodynamic from solid; Water, 37° C., 72 hours
Excerpt: The solubility of the main drug (5-nitro-8-hydroxyquinoline L-lysinate monohydrate) is greatly affected by pH. […]
test-readout: solubility at 72 h (mg/mL)
Please respond with the number in mg/mL and leave the unit unwritten.

Give solubility at 72 h for O=[N+]([O-])c1ccc(O)c2ncccc12 [main drug, monohydrate] 100

* * *

run-description: Saturated solubility of the main drug in different media
Type: physicochemical
settings: pH 4.0 buffer (citric acid / disodium hydrogen phosphate), aqueous buffer, thermodynamic from solid; pH 4.0 buffer, 37° C., 72 hours
Description: The solubility of the main drug (5-nitro-8-hydroxyquinoline L-lysinate monohydrate) is greatly affected by pH. […]
test-readout: solubility at 72 h (µg/mL)
Please respond with the number in µg/mL and leave the unit unwritten.

Give solubility at 72 h for O=[N+]([O-])c1ccc(O)c2ncccc12 [main drug, monohydrate] 430
